- study target: M4 muscarinic receptor (Homo sapiens, UniProt P08173)
- Construct: expressed in transfected cells; host or cells: CHO cells (M4-CHO, under puromycin, zeocin and blasticidin selection)
- Sequence (P08173 whole entry): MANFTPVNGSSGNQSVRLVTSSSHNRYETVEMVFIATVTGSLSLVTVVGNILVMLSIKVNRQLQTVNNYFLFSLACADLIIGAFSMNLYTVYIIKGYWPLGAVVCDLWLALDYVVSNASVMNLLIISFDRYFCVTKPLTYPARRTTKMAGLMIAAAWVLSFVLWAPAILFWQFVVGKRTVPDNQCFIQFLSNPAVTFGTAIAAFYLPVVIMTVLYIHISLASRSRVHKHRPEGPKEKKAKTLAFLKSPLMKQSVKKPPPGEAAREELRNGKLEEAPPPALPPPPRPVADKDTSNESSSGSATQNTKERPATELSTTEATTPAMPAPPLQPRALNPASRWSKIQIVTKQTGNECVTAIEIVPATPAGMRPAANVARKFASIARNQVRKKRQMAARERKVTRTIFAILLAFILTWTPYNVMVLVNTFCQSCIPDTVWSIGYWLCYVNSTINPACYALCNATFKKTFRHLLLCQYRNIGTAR
- protocol details: Functional mobilization of intracellular calcium (FLIPR, Fluo-3), M4-CHO cells
- Format: cell-based
- run conditions: compound nos. 1-454; 100% efficacy is the maximum response obtained with the Carbachol control; read-out: M4 Efficacy

molecule	Emax
CCOC(=O)N1C2CCC1CC(N1CCC3(CC1)CNc1ccccc13)C2 (stereo not drawn)	> 70%
CCCOC(=O)N1CCC(CN2CCC3(CC2)CN(C(C)=O)c2ccc(C)cc23)CC1	< 55%
CC(C)C(=O)N(C)[C@H]1CC2(CCN(C[C@H]3C[C@H]4CC[C@H]3C4)CC2)c2ccccc21	> 70%
CS(=O)(=O)N[C@@H]1CC2(CCN(C[C@H]3C[C@H]4CC[C@H]3C4)CC2)c2ccccc21	> 70%
CC(=O)N1CC2(CCN(C3CCCCC3C)CC2)c2cc(F)ccc21 (stereo not drawn)	55 to 70%
COCCOC(=O)N1C2CCC1CC(N1CCC3(CC1)CN(C(=O)OC)c1ccc(F)cc13)C2 (stereo not drawn)	> 70%
CCOC(=O)N1CCC(N2CCC3(CC2)CN(CC(=O)CC)c2ccc(F)cc23)CC1	< 55%
C#CCOC(=O)N1CCC(N2CCC3(CC2)CN(C(C)=O)c2ccc(C)cc23)CC1	< 55%
CC(=O)NC1CC2(CCN(C[C@H]3C[C@H]4C=C[C@H]3C4)CC2)c2ccccc21 (stereo partly drawn)	< 55%
CC(C)OC(=O)N1C2CCC1CC(N1CCC3(CC1)C(=O)Nc1ccccc13)C2 (stereo not drawn)	> 70%
CC(=O)N1CC2(CCN(C3CCCC3)CC2)c2cc(F)ccc21	< 55%
CC(=O)N1CC2(CCN(CC3CCCC3)CC2)c2cc(F)ccc21	55 to 70%
C#CCOC(=O)N1CCC(CN2CCC3(CC2)C[C@H](NC(C)=O)c2ccccc23)CC1	< 55%
O=C1CC2(CCN(C[C@H]3C[C@H]4C=C[C@H]3C4)CC2)c2ccccc21	< 55%
c1ccc2c(c1)NCC21CCN(C2CCCCC2)CC1	55 to 70%
CC(C)OC(=O)N1C2CCC1CC(N1CCC3(CC1)CN(C(=O)OC1CCC1)c1ccc(F)cc13)C2 (stereo not drawn)	> 70%
CCOC(=O)N1C2CCC1CC(N1CCC3(CC1)COc1ccc(F)cc13)C2 (stereo not drawn)	> 70%
CCOC(=O)N1CCC(N2CCC3(CC2)CN(C(=O)OC(C)C)c2ccc(F)cc23)CC1	> 70%
Cc1ccc2c(c1)C1(CCN(C3CC4CCC3C4)CC1)CN2S(=O)(=O)c1ccccc1 (stereo not drawn)	55 to 70%
CCOC(=O)N1CCC(N2CCC3(CC2)CN(C(C)=O)c2ccc(Cl)cc23)CC1	> 70%
Clc1ccc2c(c1)C1(CCN(C3CCC4CCC3C4)CC1)CN2 (stereo not drawn)	> 70%
CCOC(=O)N[C@@H]1CC2(CCN(C[C@H]3C[C@H]4CC[C@H]3C4)CC2)c2ccccc21	> 70%
O=C(OC1CCCC1)N1C2CCC1CC(N1CCC3(CC1)COc1ccc(F)cc13)C2 (stereo not drawn)	55 to 70%
CCCOC(=O)N1C2CCC1CC(N1CCC3(CC1)CN(C(=O)N(C)C)c1ccc(F)cc13)C2 (stereo not drawn)	< 55%
Fc1ccc2c(c1)C1(CCN(C3CCOCC3)CC1)CN2	55 to 70%
COCCOC(=O)N1C2CCC1CC(N1CCC3(CC1)CN(C(=O)N(C)C)c1ccc(F)cc13)C2 (stereo not drawn)	< 55%
COCCOC(=O)N1C2CCC1CC(N1CCC3(CC1)C(=O)Nc1ccccc13)C2 (stereo not drawn)	< 55%
Fc1ccc2c(c1)C1(CCN(CC3CCC4CCC3C4)CC1)CN2 (stereo not drawn)	< 55%
O=C(OCC1CCCO1)N1C2CCC1CC(N1CCC3(CC1)COc1ccc(F)cc13)C2 (stereo not drawn)	< 55%
CCOC(=O)N1C2CCC1CC(N1CCC3(CC1)CNc1ccc(C)cc13)C2 (stereo not drawn)	< 55%
CCCOC(=O)N1C2CCC1CC(N1CCC3(CC1)CN(C(=O)OC)c1ccc(F)cc13)C2 (stereo not drawn)	< 55%
CCOC(=O)N1C2CCC1CC(N1CCC3(CC1)C(=O)Nc1ccccc13)C2 (stereo not drawn)	< 55%
COC(=O)N1CCC(N2CCC3(CC2)CN(C(C)=O)c2ccc(F)cc23)CC1	55 to 70%

src = patent US7858635B2
